Quick list: abundance fitness per entry.
B1: Chromodomain-helicase-DNA-binding protein 3, residues 374 to 426; numbered along this chain, Q12873 (parent)
chain: YETDHQDYCEVCQQGGEIILCDTCPRAYHLVCLDPELDRAPEGKWSCPHCEKE

Variants of: B1
Assay: abundance fitness (aPCA) (normalised: wild type 0, dead -1); higher = more abundant; growth selection in yeast, the domain comes from the species named
Conditions: Homo sapiens

[
  {
    "VARIANT SPEC": "C12Y",
    "abundance fitness": -0.871
  },
  {
    "VARIANT SPEC": "H29G",
    "abundance fitness": -0.844
  },
  {
    "VARIANT SPEC": "G16I",
    "abundance fitness": 0.079
  },
  {
    "VARIANT SPEC": "Y28M",
    "abundance fitness": 0.219
  },
  {
    "VARIANT SPEC": "V31Y",
    "abundance fitness": -0.297
  },
  {
    "VARIANT SPEC": "Y8N",
    "abundance fitness": 0.061
  },
  {
    "VARIANT SPEC": "D34S",
    "abundance fitness": -0.127
  },
  {
    "VARIANT SPEC": "E36I",
    "abundance fitness": -0.145
  },
  {
    "VARIANT SPEC": "Q14Y",
    "abundance fitness": -0.501
  },
  {
    "VARIANT SPEC": "H5C",
    "abundance fitness": 0.222
  },
  {
    "VARIANT SPEC": "I18R",
    "abundance fitness": -0.12
  },
  {
    "VARIANT SPEC": "C12A",
    "abundance fitness": -0.712
  },
  {
    "VARIANT SPEC": "V31W",
    "abundance fitness": -0.26
  },
  {
    "VARIANT SPEC": "D22L",
    "abundance fitness": -0.171
  },
  {
    "VARIANT SPEC": "C21P",
    "abundance fitness": -0.984
  },
  {
    "VARIANT SPEC": "L37D",
    "abundance fitness": -0.228
  },
  {
    "VARIANT SPEC": "T23N",
    "abundance fitness": 0.122
  },
  {
    "VARIANT SPEC": "Y8V",
    "abundance fitness": 0.053
  },
  {
    "VARIANT SPEC": "T23E",
    "abundance fitness": -0.077
  },
  {
    "VARIANT SPEC": "V31E",
    "abundance fitness": -0.229
  },
  {
    "VARIANT SPEC": "T23Y",
    "abundance fitness": 0.05
  },
  {
    "VARIANT SPEC": "C21A",
    "abundance fitness": -0.778
  },
  {
    "VARIANT SPEC": "H5T",
    "abundance fitness": 0.186
  },
  {
    "VARIANT SPEC": "E17M",
    "abundance fitness": 0.152
  },
  {
    "VARIANT SPEC": "D4T",
    "abundance fitness": 0.079
  },
  {
    "VARIANT SPEC": "V11T",
    "abundance fitness": 0.269
  },
  {
    "VARIANT SPEC": "E36Q",
    "abundance fitness": -0.193
  },
  {
    "VARIANT SPEC": "E10S",
    "abundance fitness": 0.064
  },
  {
    "VARIANT SPEC": "V11W",
    "abundance fitness": -0.266
  },
  {
    "VARIANT SPEC": "G16H",
    "abundance fitness": -0.057
  },
  {
    "VARIANT SPEC": "H29V",
    "abundance fitness": -0.745
  },
  {
    "VARIANT SPEC": "L37K",
    "abundance fitness": -0.116
  },
  {
    "VARIANT SPEC": "D7R",
    "abundance fitness": -0.289
  },
  {
    "VARIANT SPEC": "E17Q",
    "abundance fitness": -0.147
  },
  {
    "VARIANT SPEC": "C12T",
    "abundance fitness": -0.813
  },
  {
    "VARIANT SPEC": "C21M",
    "abundance fitness": -0.901
  },
  {
    "VARIANT SPEC": "H5E",
    "abundance fitness": -0.137
  },
  {
    "VARIANT SPEC": "T23S",
    "abundance fitness": 0.032
  },
  {
    "VARIANT SPEC": "I18E",
    "abundance fitness": 0.13
  },
  {
    "VARIANT SPEC": "L30H",
    "abundance fitness": -0.059
  },
  {
    "VARIANT SPEC": "C24K",
    "abundance fitness": -0.919
  },
  {
    "VARIANT SPEC": "T3P",
    "abundance fitness": -0.09
  },
  {
    "VARIANT SPEC": "L37I",
    "abundance fitness": -0.191
  },
  {
    "VARIANT SPEC": "G16P",
    "abundance fitness": -0.423
  },
  {
    "VARIANT SPEC": "L33A",
    "abundance fitness": -0.12
  },
  {
    "VARIANT SPEC": "V31M",
    "abundance fitness": -0.03
  },
  {
    "VARIANT SPEC": "H29E",
    "abundance fitness": -0.872
  },
  {
    "VARIANT SPEC": "D34Y",
    "abundance fitness": -0.327
  },
  {
    "VARIANT SPEC": "H29Y",
    "abundance fitness": -1.1
  },
  {
    "VARIANT SPEC": "D4A",
    "abundance fitness": 0.133
  },
  {
    "VARIANT SPEC": "C21S",
    "abundance fitness": -0.569
  },
  {
    "VARIANT SPEC": "Y1W",
    "abundance fitness": 0.259
  },
  {
    "VARIANT SPEC": "E36F",
    "abundance fitness": -0.083
  },
  {
    "VARIANT SPEC": "D38K",
    "abundance fitness": -0.518
  },
  {
    "VARIANT SPEC": "C9G",
    "abundance fitness": -0.669
  },
  {
    "VARIANT SPEC": "T3Y",
    "abundance fitness": 0.113
  },
  {
    "VARIANT SPEC": "L33F",
    "abundance fitness": -0.449
  },
  {
    "VARIANT SPEC": "G16N",
    "abundance fitness": 0.157
  },
  {
    "VARIANT SPEC": "D4M",
    "abundance fitness": 0.438
  },
  {
    "VARIANT SPEC": "I18L",
    "abundance fitness": -0.022
  },
  {
    "VARIANT SPEC": "L30K",
    "abundance fitness": -0.121
  },
  {
    "VARIANT SPEC": "Y28H",
    "abundance fitness": 0.148
  },
  {
    "VARIANT SPEC": "E17I",
    "abundance fitness": -0.353
  },
  {
    "VARIANT SPEC": "G16M",
    "abundance fitness": -0.237
  },
  {
    "VARIANT SPEC": "L37V",
    "abundance fitness": -0.143
  },
  {
    "VARIANT SPEC": "D22F",
    "abundance fitness": -0.344
  },
  {
    "VARIANT SPEC": "E2N",
    "abundance fitness": 0.526
  },
  {
    "VARIANT SPEC": "R39N",
    "abundance fitness": 0.034
  },
  {
    "VARIANT SPEC": "E36T",
    "abundance fitness": -0.172
  },
  {
    "VARIANT SPEC": "E2R",
    "abundance fitness": -0.086
  },
  {
    "VARIANT SPEC": "D38M",
    "abundance fitness": -0.416
  },
  {
    "VARIANT SPEC": "D4C",
    "abundance fitness": -0.066
  },
  {
    "VARIANT SPEC": "C12K",
    "abundance fitness": -0.757
  }
]
